protocol.text: Metabolic stability of the compound in human plasma assessed as parent compound remaining measured after 30 mins
Type: ADME, cell-free
experimental.conditions: read-out: Stability
Kindly state remaining at 0.5 h for each of the entries shown.

Some solved entries appear below for comparison.
COc1ccc([S+]([O-])/C=C/c2ccccc2C(F)(F)F)nc1 (stereo not drawn); > 99%
COc1ncccc1S(=O)(=O)/C=C/c1ccccc1Cl; > 99%

Now look at this one.
Consider the molecule shown here: COc1ccnc(S(=O)(=O)/C=C/c2ccccc2Cl)c1 What is its recorded remaining at 0.5 h?
> 99%

====

protocol.text: Metabolic stability of the compound in human liver microsomes assessed as parent compound remaining measured after 30 mins
Format: ADME, Microsome
experimental.conditions: read-out: Stability
For each of the compounds below, state its remaining at 0.5 h.
Give bare numbers, in %.

COc1ccnc(S(=O)(=O)/C=C/c2ccc(Cl)cc2)c1; 37.8
COc1cccnc1C(=O)/C=C/c1ccccc1C(F)(F)F; 1
COc1ccc(S(=O)(=O)/C=C/c2ncccc2C(F)(F)F)nc1; 57.2
COc1ccc([S+]([O-])/C=C/c2ccccc2C(F)(F)F)nc1 (configuration not stated); 28
COc1ccnc(S(=O)(=O)/C=C/c2ccccc2C(F)(F)F)c1; 58.5
COc1ccnc(S(=O)(=O)/C=C/c2ncccc2C(F)(F)F)c1; 63.2
COc1ccc(S(=O)(=O)/C=C/c2ccccc2C(F)(F)F)nc1; 31.7
COc1ccnc(S(=O)(=O)/C=C/c2ccncc2Cl)c1; 77.3

Quick request: remaining at 0.5 h for each listed item, please.
1. COc1cccc([S+]([O-])/C=C/c2ccccc2C(F)(F)F)n1 (configuration not stated)
2. COc1ccnc(S(=O)(=O)/C=C/c2ccc(Cl)nc2)c1
3. COc1cccc(S(=O)(=O)/C=C/c2ccccc2Cl)n1

[6.3, 65.8, 13.8]

Recorded values, source ChEMBL document CHEMBL5370549.
